- tested-on: HLA-B*57:01
- experiment: IEDB peptide-MHC binding, purified MHC/competitive/radioactivity; filed as Kd, often an IC50 or EC50 that approximates it; bounds were set here for any values at or beyond the usual limits of such assays
- applied-conditions: source organism: Homo sapiens
measure: Kd

Quick one: Kd for YMIDPSGVSY ?
≥ 31.6 µM

###

- tested-on: HLA-A*11:01
- experiment: IEDB peptide-MHC binding, purified MHC/direct/fluorescence; filed as Kd, often an IC50 or EC50 that approximates it; bounds were set here for any values at or beyond the usual limits of such assays
- applied-conditions: source organism: Mycoplasmoides genitalium
measure: Kd
Answer format reminder: number followed by unit.

Please provide the recorded Kd for YSDIPRLKK , tested on HLA-A*11:01.
92.7 nM
